TARGET OR TEST SYSTEM: A disintegrin and metalloproteinase with thrombospondin motifs 4 (Homo sapiens, UniProt O75173)
Sequence (O75173 whole entry): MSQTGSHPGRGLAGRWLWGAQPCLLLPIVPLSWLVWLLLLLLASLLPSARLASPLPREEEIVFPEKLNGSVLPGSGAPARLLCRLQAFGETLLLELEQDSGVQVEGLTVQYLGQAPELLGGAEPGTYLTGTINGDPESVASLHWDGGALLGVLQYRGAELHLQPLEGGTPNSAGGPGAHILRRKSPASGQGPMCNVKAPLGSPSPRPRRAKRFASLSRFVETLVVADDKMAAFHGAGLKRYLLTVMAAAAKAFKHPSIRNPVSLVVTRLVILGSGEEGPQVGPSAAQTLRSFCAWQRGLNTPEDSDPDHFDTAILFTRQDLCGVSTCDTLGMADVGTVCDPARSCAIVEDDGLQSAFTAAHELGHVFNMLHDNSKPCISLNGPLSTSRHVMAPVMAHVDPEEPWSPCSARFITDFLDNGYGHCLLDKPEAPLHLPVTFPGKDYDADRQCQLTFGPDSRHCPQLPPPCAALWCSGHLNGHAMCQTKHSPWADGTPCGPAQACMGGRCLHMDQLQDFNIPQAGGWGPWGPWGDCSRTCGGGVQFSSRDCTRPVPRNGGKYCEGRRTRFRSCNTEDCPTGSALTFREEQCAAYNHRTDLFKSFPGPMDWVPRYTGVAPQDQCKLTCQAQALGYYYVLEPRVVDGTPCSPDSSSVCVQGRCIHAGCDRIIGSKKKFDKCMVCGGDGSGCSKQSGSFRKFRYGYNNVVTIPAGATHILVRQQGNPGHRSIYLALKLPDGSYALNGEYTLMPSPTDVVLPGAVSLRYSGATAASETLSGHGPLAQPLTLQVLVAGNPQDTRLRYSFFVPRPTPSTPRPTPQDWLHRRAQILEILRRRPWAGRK
pIC50: −log10 of the molar value.
ATTRIBUTE MEASURED: pIC50

> print(dat)
                                   compound  observed.result
1  CC(C)C1(CNC(=O)c2ccc(F)c(F)c2-c2ccc(C(F)(F)F)cc2)NC(=O)NC1=O (single isomer, unassigned)             4.43
2  Cc1ccc(-c2cc(F)ccc2C(=O)NCC2(c3nccn3C)NC(=O)NC2=O)cc1 (single isomer, unassigned)             5.77
3  Cc1ccc(-c2cc(F)ccc2C(=O)NC[C@@]2(C3CC3)NC(=O)NC2=O)cc1             5.09

Data provenance: BindingDB's records for patent US12398120
